test system: cardiac microtissues; assay: ER integrity (ER-Tracker blue imaging) in cardiac microtissues; type: cell-based, human; conditions: Homo sapiens; cardiac microtissues, 72 hours, geometric mean; read-out: ER integrity IC50
Where a name gives a salt, the structure may show the parent alone.
# Lookup of reported log10 of IC50 keyed by entry
// do not treat as linear: log10 of IC50, unit µM

Below are worked cases with known answers.
CCN(CC)CCNC(=O)c1c(C)[nH]c(/C=C2\C(=O)Nc3ccc(F)cc32)c1C [Sunitinib Malate]    -0.41
COC(=O)Nc1nc2ccc(C(=O)c3ccccc3)cc2[nH]1 [Mebendazole]    0.78
O=C1c2c(O)ccc(O)c2C(=O)c2c(NCCNCCO)ccc(NCCNCCO)c21 [Mitoxantrone diHCl]    0.04
CC(C)C[C@H](NC(=O)[C@H](Cc1ccccc1)NC(=O)c1cnccn1)B(O)O [Bortezomib]    1.96
COc1cccc2c1C(=O)c1c(O)c3c(c(O)c1C2=O)C[C@@](O)(C(=O)CO)C[C@@H]3O[C@H]1C[C@H](N)[C@H](O)[C@H](C)O1 [Doxorubicin HCl]    0.50

Task: Determine its reported log10 of IC50: C[C@@H]1[C@H](O)[C@@H](C)/C=C/C=C/C=C/C=C/C=C/C=C/C=C/[C@H](O[C@@H]2O[C@H](C)[C@@H](O)[C@H](N)[C@@H]2O)C[C@@H]2O[C@](O)(C[C@@H](O)C[C@@H](O)[C@H](O)CC[C@@H](O)C[C@@H](O)CC(=O)O[C@H]1C)C[C@H](O)[C@H]2C(=O)O [Amphotericin B]
Result: 0.55

Task: Give recorded log10 of IC50. CNC(=O)c1cc(Oc2ccc(NC(=O)Nc3ccc(Cl)c(C(F)(F)F)c3)cc2)ccn1 [Sorafenib Tosylate]
Result: 0.81

Task: Return log10 of IC50 for the following molecule: O=C(C1CCCCC1)N1CC(=O)N2CCc3ccccc3C2C1 (stereo not drawn) [Praziquantel]
Result: -0.09

Task: Provide log10 of IC50 value for the following molecule: O=c1[nH]cc(F)c(=O)[nH]1 [Fluorouracil]
Result: 1.78
